biological target: ALK enzyme (Homo sapiens); experiment: Anaplastic lymphoma kinase (ALK) inhibitory activity, HTRF kinase assay; assay type: biochemical; conditions: HTRF, read-out: ALK
Sequence (Q9UM73 19-1620): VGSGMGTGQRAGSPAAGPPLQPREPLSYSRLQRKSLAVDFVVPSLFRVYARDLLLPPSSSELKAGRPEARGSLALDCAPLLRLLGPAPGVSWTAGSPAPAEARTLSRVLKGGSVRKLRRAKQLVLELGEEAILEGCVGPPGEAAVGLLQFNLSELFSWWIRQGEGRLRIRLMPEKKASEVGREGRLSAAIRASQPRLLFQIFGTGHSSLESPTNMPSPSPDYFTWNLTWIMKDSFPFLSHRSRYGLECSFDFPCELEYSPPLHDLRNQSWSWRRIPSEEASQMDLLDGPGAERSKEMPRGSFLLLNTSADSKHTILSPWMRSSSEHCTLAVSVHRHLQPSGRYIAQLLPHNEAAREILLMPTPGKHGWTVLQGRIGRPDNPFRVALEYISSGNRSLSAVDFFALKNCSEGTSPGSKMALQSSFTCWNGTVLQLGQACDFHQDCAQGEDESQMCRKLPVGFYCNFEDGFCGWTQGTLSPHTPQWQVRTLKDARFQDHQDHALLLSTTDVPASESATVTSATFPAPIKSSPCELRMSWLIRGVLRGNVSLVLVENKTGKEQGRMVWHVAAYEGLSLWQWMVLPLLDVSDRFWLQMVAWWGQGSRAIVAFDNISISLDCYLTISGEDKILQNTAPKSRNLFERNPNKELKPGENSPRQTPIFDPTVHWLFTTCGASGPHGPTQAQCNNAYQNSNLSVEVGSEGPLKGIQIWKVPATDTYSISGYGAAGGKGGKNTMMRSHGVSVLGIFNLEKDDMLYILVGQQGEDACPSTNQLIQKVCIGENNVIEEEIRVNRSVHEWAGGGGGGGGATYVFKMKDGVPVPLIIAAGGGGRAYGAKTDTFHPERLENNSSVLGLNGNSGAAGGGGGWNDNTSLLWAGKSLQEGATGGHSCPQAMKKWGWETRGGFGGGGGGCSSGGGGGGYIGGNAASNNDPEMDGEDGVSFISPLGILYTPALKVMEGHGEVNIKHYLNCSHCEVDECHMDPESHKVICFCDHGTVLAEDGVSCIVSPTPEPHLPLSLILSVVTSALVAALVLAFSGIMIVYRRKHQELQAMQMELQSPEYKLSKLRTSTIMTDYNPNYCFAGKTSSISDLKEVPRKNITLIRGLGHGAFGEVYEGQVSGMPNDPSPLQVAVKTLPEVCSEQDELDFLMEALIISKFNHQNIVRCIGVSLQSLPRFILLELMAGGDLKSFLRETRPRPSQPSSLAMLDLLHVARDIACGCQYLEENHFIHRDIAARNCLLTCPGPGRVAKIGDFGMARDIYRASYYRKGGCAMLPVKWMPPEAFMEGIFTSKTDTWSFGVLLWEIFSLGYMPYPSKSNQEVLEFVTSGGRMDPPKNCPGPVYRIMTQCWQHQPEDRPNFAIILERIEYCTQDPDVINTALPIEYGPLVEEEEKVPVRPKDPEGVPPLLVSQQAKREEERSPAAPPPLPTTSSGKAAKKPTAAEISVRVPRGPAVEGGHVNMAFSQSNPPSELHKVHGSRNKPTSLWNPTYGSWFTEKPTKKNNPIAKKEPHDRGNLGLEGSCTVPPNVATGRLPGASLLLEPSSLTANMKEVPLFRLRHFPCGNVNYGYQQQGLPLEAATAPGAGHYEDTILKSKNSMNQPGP
pIC50: −log10 of the molar value. Structures can show the parent of a compound that is named as a salt.
// reported pIC50 for each item listed

[
  {
    "molecule": "COc1cc2c(cc1Nc1ncc(Cl)c(Nc3ccccc3S(=O)(=O)C(C)C)n1)CCC(N(C)C)C2(C)C (stereo not shown)",
    "pIC50": "> 8.00"
  },
  {
    "molecule": "COc1cc2c(cc1Nc1ncc(Cl)c(Nc3ccccc3S(=O)(=O)C(C)C)n1)C(C)(C)/C(=N/NC(N)=O)CC2",
    "pIC50": "> 8.00"
  },
  {
    "molecule": "COc1cc2c(cc1Nc1ncc(Cl)c(Nc3ccccc3S(=O)(=O)C(C)C)n1)C(C)(C)/C(=N/N1CCN(C)CC1)CC2",
    "pIC50": "7.00 to 8.00"
  },
  {
    "molecule": "COc1cc2c(cc1Nc1ncc(Cl)c(Nc3ccccc3S(=O)(=O)C(C)C)n1)CC/C(=N\\N)C2(C)C [Example 13, hydrochloride]",
    "pIC50": "7.00 to 8.00"
  },
  {
    "molecule": "COc1cc2c(cc1Nc1ncc(Cl)c(Nc3ccccc3S(=O)(=O)C(C)C)n1)CC/C(=N\\O)C2(C)C",
    "pIC50": "< 7.00"
  },
  {
    "molecule": "COc1cc2c(cc1Nc1ncc(Cl)c(Nc3ccccc3S(=O)(=O)C(C)C)n1)C(C)(C)C(N)CC2 (stereo not shown)",
    "pIC50": "7.00 to 8.00"
  },
  {
    "molecule": "COc1cc2c(cc1Nc1ncc(Cl)c(Nc3ccccc3S(=O)(=O)C(C)C)n1)CC/C(=N\\NC(N)=O)C2(C)C",
    "pIC50": "7.00 to 8.00"
  }
]
